All figures here come from ChEMBL document CHEMBL5500362.

- PROCEDURE_TEXT: Tmax in C57BL/6 mouse at 1 mg/kg, sc by LC-MS/MS analysis
- Type: ADME, organism-based
- ASSAY_SETUP: in vivo
ASSAY_ENDPOINT: Tmax (min)
Numbers only, in min.

The molecule listed as `COc1ccc(-c2nc3ccccc3s2)cc1OCCCCCCC(=O)NO` has a reported Tmax of 15

* * *

Please provide measured inhibition for the entries that follow.
- Tested on: HeLa;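 note: HDAC inhibition in HeLa cells, read on a microplate reader using an acetylated peptide AMC substrate, expressed relative to control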
- ASSAY_SETUP: Homo sapiens, dose 100.0 nM, time 15.0 min
One number for each entry, in %.

Here are 3 compounds together with their reported answers.
SMILES_INPUT	inhibition, %
O=C(CCCCOc1cccc(-c2nc3ccccc3s2)c1)NO	45.7
O=C(COc1cccc(-c2nc3ccccc3s2)c1)NO	66.5
COc1cc(-c2nc3ccccc3s2)ccc1OCCCCCCC(=O)NO	74.2

Provide each entry's inhibition from the list below.
1. O=C(CCCCCCOc1ccc(-c2nc3ccc(F)cc3s2)cc1)NO
2. O=C(CCCCCOc1cccc(-c2nc3ccccc3s2)c1)NO
3. O=C(CCCCCCOc1ccc(-c2nc3cc(Cl)ccc3s2)cc1)NO
4. O=C(CCCCCCOc1ccc(-c2nc3ccccc3s2)c(Cl)c1)NO
5. O=C(CCCCCCOc1ccc(-c2nc3ccccc3s2)cc1)NO
6. O=C(CCCOc1ccc(-c2nc3ccccc3s2)cc1)NO
7. COc1ccc(-c2nc3ccc(C)cc3s2)cc1OCCCCCCC(=O)NO
8. O=C(COc1ccc(-c2nc3ccccc3s2)cc1)NO

1. 61.2
2. 76.7
3. 42.7
4. 33.2
5. 84.2
6. 3.33
7. 67.8
8. 34.8

The measured inhibition associated with `O=C(CCCCCCCOc1ccc(-c2nc3ccccc3s2)cc1)NO` reads 9.17
